# protocol_text: logP by HPLC on reversed-phase column (C 18), EEC Directive 79/831 Annex V.A8
# Assay type: physicochemical
# stated_conditions: pH 2.3, C 18
measured_quantity: log P (pH 2.3)

I. CCN(C)C=Nc1cc(C)c(Oc2cncc(Cl)c2)cc1C
II. Cc1cc([N+](=O)[O-])c(C)cc1Oc1cncc(Cl)c1
Query: Given the two records I and II , choose the one whose log P (pH 2.3) value is lower. To answer, give the label that identifies your chosen option.
Reply: I
(I: 1.70, II: 3.61)

====

# protocol_text: logP by HPLC on reversed-phase column (C 18), EEC Directive 79/831 Annex V.A8
# Format: physicochemical
# stated_conditions: C 18, 40° C., 0.1% aqueous formic acid and acetonitrile
measured_quantity: logPa

Some entries whose results are on file:
Query: GET /values?readout=logPa&item= `CCN(C)C=Nc1cc(C)c(Oc2cc(C(F)(F)F)ccn2)cc1C`
Reply: 1.96

Query: GET /values?readout=logPa&item= `CCN(C)C=Nc1cc(C)c(Oc2cncc(Cl)c2)cc1C`
Reply: 1.82

Query: GET /values?readout=logPa&item= `CCc1cc(Cl)cc(Oc2cc(C)c(N=CN3CCCCC3)cc2C)n1`
Reply: 2.04

a. CCc1cc(Cl)cc(Oc2cc(C)c(N=CN(C)CC)cc2C)n1
b. CCN(C)C=Nc1cc(C(C)(C)C)c(Oc2cc(C(F)(F)F)cc(Cl)n2)cc1C
c. CCN(C)C=Nc1cc(C)c(Oc2ccc(C)nc2)cc1C
Query: hey, can you rank those compounds up there by logPa? biggest number first please Labels, requested order.
Reply: b, a, c

1. CCCN(C)C=Nc1cc(C)c(Oc2ccc(C)c(Cl)n2)cc1C
2. C=CCN(C)C=Nc1cc(C)c(Oc2ccnc(CC)c2Cl)cc1C
Query: Given the two records 1 and 2 , choose the one whose logPa value is lower. To answer, give the label that identifies your chosen option.
Reply: 2

1. CCN(C)C=Nc1cc(C)c(Oc2cccnc2C)cc1C
2. Cc1cc(Oc2ccc(C(F)(F)F)c(Cl)n2)c(C)cc1N=CN(C)C(C)C
Query: // max by logPa over [ 1 , 2 ] To answer, give the label that identifies your chosen option.
Reply: 2
(2: 2.51, 1: 1.56)

A. CCN(C)C=Nc1cc(C)c(Oc2ccc(C(F)(F)F)c(Cl)n2)cc1C [Example 11]
B. CCN(C)C=Nc1cc(C)c(Oc2cc(C#N)ccn2)cc1C
Query: Given the two records A and B , choose the one whose logPa value is lower. To answer, give the label that identifies your chosen option.
Reply: B
